- test-summary: in vivo
- test-context: male, C57Bl/6, mouse, ip
readout-type: Tmax (min)
Field: numeric (min). Do not append units.

# input Quick one: Tmax of CCOC(=O)C=CC(CC1CCNC1=O)NC(=O)C(Cc1ccccc1)NC(=O)C(N)Cc1ccccc1 (stereo not shown) ?
# output 8.4

* * *

The listing below reports IC50 for compounds tested on UniProtKB P07711.
Sequence (P07711 114-333): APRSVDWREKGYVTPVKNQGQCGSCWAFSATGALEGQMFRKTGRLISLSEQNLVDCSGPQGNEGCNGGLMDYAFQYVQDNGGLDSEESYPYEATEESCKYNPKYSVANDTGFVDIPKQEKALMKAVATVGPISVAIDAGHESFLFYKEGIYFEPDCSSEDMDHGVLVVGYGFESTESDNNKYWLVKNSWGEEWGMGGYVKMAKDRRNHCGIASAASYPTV
Field: numeric (nM). Do not append units.

# input Quick one: IC50 of CCOC(=O)C=CC(CC1CCNC1=O)NC(=O)C(Cc1ccccc1)NC(=O)C(Cc1ccc(F)cc1)NC(=O)OC(C)(C)C (centres unmarked) [SM142] ?
# output 145

# input What would you report for CCOC(=O)C=CC(CC1CCNC1=O)NC(=O)C(Cc1ccccc1)NC(=O)C(N)Cc1ccccc1 (centres unmarked) [SM141] ?
# output 60

# input What would you report for C#CCOCCC(=O)NC(Cc1ccccc1)C(=O)NC(Cc1ccccc1)C(=O)NC(C=CC(=O)OCC)CC1CCNC1=O (centres unmarked) [SM145] ?
# output 200

# input What would you report for C#CCOCCC(=O)NC(Cc1ccc(F)cc1)C(=O)NC(Cc1ccccc1)C(=O)NC(C=CC(=O)OCC)CC1CCNC1=O (centres unmarked) [SM144] ?
# output 220

# input What would you report for CCOC(=O)C=CC(CC1CCNC1=O)NC(=O)C(Cc1ccccc1)NC(=O)C(N)Cc1ccc(F)cc1 (centres unmarked) [SM143] ?
# output 73
